Assay: anti-His antibody binders, primary screen, artefact control for SMM control protein annotation, biochemical, small-molecule microarray, 635 nm fluorescence (AID 1128);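 also: score merges feature fluorescence with signal-to-noise for each printed compound spot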
Details: anti-His Alexa647 antibody binding, higher = more signal
Threshold check on composite z-score: at or above 1 gives rule met, strictly below gives rule not met.

* C=CCNC(=O)[C@H]1[C@@H]2C(=O)O[C@@H](c3ccccc3)[C@@H](c3ccccc3)N2[C@@H](c2ccccc2OCCO)[C@]12C(=O)N(C(=O)OCCOC)c1ccc(C#CC3=CCCCC3)cc12 | rule not met
* O=C(O)[C@]1(Cc2ccccc2)N=C(c2ccc(OCCCO)cc2)O[C@@H]1c1ccccc1 | rule met
* O=C1O[C@@H](c2ccccc2)[C@@H](c2ccccc2)N2[C@@H](c3ccc(O)cc3)[C@]3(C(=O)Nc4ccccc43)[C@@H](C(=O)Nc3nc4ccccc4s3)[C@H]12 | rule met
* C=CC[C@H](OC(=O)Nc1ccc(OC)cc1)c1ccc(O)c2ccccc12 | rule met
* COc1cc(CO)cc(I)c1O[C@H]1C=C(C(=O)NCCO)C[C@@H](N(Cc2ccc(F)cc2)C(=O)C2CCCO2)[C@@H]1O (some centres not stated) | rule not met

INPUT: # bool: composite z-score of O=C1OC[C@@H](c2ccccc2)N2CC(/C=C/c3ccccc3)=CC12 (some centres not stated) >= 1
OUTPUT: rule not met

INPUT: Entry C=CCN1C(=O)[C@]2(CC=C)N=C(c3ccc(OCCCO)cc3)O[C@@H]2c2ccccc21 : is its composite z-score no less than 1?
OUTPUT: rule met
